target: T1, DVL1, O14640
T1 sequence (O14640 246-333, limits assumed, looked up): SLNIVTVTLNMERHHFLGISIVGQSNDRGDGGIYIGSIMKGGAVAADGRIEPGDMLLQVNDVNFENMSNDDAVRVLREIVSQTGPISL
test.details: holdup assay
Set-up: key: below the threshold = too weak to quantify, mostly under pKd 3.1 to 4
conditions.used: plain residues with an end cap or a label only (N-terminal biotin on a linker: ttds)
parameter.measured: pKd

binder="SHSSKGETAV [FZD7, O75084]" parameter_measured=pKd result="below the threshold"
binder="SRSRRRETAL [HPV33-E6, P06427]" parameter_measured=pKd result=4.23
binder="PPRQRSETQV [HPV82-E6, Q9IR59]" parameter_measured=pKd result="below the threshold"
binder="PSRDRKETSI [RALBP1, Q15311]" parameter_measured=pKd result="below the threshold"

FYI, the data here is from paper PMC9482650.
